Each entry below lists one item and its recorded kon value.
Target or system: T1, human IL-23 (human, UniProt P29460 23-328; Q9NPF7 20-189)
T1 construct: Recombinant (Ebioscience); HIS-tagged in flow cytometry, biotinylated in some assays; also called hIL-23; rhIL-23
T1 sequence 1: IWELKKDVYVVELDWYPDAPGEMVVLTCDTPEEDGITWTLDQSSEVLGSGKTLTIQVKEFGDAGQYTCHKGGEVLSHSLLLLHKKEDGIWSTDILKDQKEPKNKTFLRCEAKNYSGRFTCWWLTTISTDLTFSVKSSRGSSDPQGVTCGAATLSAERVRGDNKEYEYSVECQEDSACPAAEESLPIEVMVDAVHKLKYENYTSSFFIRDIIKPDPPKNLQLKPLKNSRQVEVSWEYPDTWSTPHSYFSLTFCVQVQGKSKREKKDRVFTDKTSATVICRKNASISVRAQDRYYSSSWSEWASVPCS
T1 sequence 2: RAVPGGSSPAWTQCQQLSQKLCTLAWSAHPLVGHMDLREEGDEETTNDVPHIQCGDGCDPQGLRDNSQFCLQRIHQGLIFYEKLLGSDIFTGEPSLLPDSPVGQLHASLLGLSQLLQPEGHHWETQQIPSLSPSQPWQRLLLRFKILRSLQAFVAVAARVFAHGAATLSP
Experimental details: SPR, IgG on Protein A
Please state the figure in M⁻¹ s⁻¹; there is no need to write the unit.

// returns reported kon for input Antibody 195 (antibody, human IgG1, kappa, V domains shown) VH: QVQLVQSGAEVKKPGASVKVSCKASGYTFTDYYLHWVRQAPGQGLEWMGWIDPENGDTEHAPKFQGRVTMTTDTSTSTAYMELRSLRSDDTAVYYCAANKELRYFDVWGQGTMVTVSS VL: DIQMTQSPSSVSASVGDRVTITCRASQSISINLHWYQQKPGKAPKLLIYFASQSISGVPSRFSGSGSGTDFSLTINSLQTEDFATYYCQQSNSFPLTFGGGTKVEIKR
4.03e+06

// returns reported kon for input Antibody 181 (antibody, human IgG1, kappa, V domains shown) VH: EVQLVQSGAEVKKPGATVKISCKASGYTFSDYYLHWVRQAPEKGLEWMGWIDPENGDTEHAPKFQGRVTITADTSTDTGYLELSSLRSEDTAVYYCAANKELRYFDVWGQGTLVTVSS VL: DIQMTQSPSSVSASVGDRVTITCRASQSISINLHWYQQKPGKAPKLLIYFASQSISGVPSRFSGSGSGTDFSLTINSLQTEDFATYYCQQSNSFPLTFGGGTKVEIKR
4.09e+06

// returns reported kon for input Antibody 190 (antibody, human IgG1, kappa, V domains shown) VH: QVQLVQSGAEVKKPGASVKVSCKASGYTFTDYYLHWVRQAPGQGLEWMGWIDPENGDTEYAPKFQGRVTMTTDTSTSTAYMELRSLRSDDTAVYYCNANKELRYFDVWGQGTMVTVSS VL: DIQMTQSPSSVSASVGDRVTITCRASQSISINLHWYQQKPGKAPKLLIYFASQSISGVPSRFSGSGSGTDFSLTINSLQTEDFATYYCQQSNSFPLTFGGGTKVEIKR
4.28e+06
